- PROTOCOL DETAILS: β-cyclodextrin dissolution rate in deionized water by refractive index
- Type: physicochemical
- STATED CONDITIONS: time 0 min; 350 mg in 50 mL deionized water
QUANTITY MEASURED: β-Cyclodextrin Dissolved (%)

1) OC[C@H]1O[C@@H]2O[C@H]3[C@H](O)[C@@H](O)[C@@H](O[C@H]4[C@H](O)[C@@H](O)[C@@H](O[C@H]5[C@H](O)[C@@H](O)[C@@H](O[C@H]6[C@H](O)[C@@H](O)[C@@H](O[C@H]7[C@H](O)[C@@H](O)[C@@H](O[C@H]8[C@H](O)[C@@H](O)[C@@H](O[C@H]1[C@H](O)[C@H]2O)O[C@@H]8CO)O[C@@H]7CO)O[C@@H]6CO)O[C@@H]5CO)O[C@@H]4CO)O[C@@H]3CO [116 μm, β-cyclodextrin] ... 0

Data origin: patent US20080075784A1
